Just for reference, PubChem BioAssay (Tox21) is where these values come from.

- MEASURED ON: Nuclear receptor ROR-gamma (Homo sapiens)
- TEST SUMMARY: qHTS assay to identify small molecule antagonists of the retinoid-related orphan receptor gamma (ROR-gamma) signaling pathway (AID 1159521; also: nearly all actives have a fitted effect of over 50% in size)
- STUDY CONDITIONS: Tet-on RORgamma CHO cells, RORE-luciferase, 16 h; series mostly up to 92.4 µM
Inconclusive results are not listed. Calls of active or inactive are those of the source. Calls follow the shape of the dose curve; as a rule, active = well fitted inhibition curve with a large enough effect in the repeat runs; inconclusive = weak or mixed curves, or effect the other way; inactive = no such curve, though single readings can be large or run the other way.
In this exercise, the only acceptable responses are y for active, n for inactive

Problem: I'd appreciate the recorded outcome for CNCc1cc(F)ccc1Oc1ccc(Cl)c(Cl)c1 from this test.
Solution: y

Problem: // return assay outcome for CC(C)(C)CC(C)(C)c1ccc(O)c(Cc2ccc(Cl)cc2Cl)c1
Solution: y

Problem: Check the results log: what was the call for COc1cccc(N)c1 ?
Solution: n

Problem: Each molecule tested received a call. Report the one for CCCCC(CC)CN=C(N)NC(N)=NCCCCCCN=C(N)NC(N)=NCC(CC)CCCC (configuration not stated) .
Solution: y

Problem: Tell me the assay call for CCc1cc(Cc2cc(CC)c(N)c(CC)c2)cc(CC)c1N please.
Solution: y

Problem: # fetch the recorded call for N#CC1(c2ccc(F)cc2)CCC(=O)CC1 here
Solution: n

Problem: Status in this test for N=C1N=C(N)c2ccccc21 ?
Solution: y
